# ASSAY SYSTEM: T1, 4H3010-bA
# T1 chain: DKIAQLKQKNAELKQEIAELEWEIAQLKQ
# EXPERIMENT NOTES: two-hybrid library CCNG1;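 note: natural log of median RNA to DNA barcode read ratio; higher means stronger binding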
Threshold-based label: interaction score under 1 gives True, interaction score not under 1 gives False.

Previously resolved entries follow.
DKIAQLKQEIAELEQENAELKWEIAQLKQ [4H2586-bA] = False
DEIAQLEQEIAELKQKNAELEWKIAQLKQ [4H118-bA] = False
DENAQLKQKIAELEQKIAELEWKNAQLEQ [4H1831-bA] = True
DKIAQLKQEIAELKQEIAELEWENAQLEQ [4H2627-bA] = True

Dear colleague, could you confirm whether interaction score of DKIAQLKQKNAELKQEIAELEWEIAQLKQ [4H3010-bA] falls below 1? Thanks.
True

Is the reported interaction score for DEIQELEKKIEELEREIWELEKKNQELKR [4H264-bH] strictly below 1?
False

Please determine if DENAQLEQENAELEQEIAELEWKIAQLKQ [4H1158-bA] is below 1 in terms of interaction score.
False
